I'd appreciate it if you could supply B. signalgrass plant response rating values for the items below.
# System: surinam grass
# MEASUREMENT DESCRIPTION: Test B pre/postemergence surinam grass
# Type: in vivo, Brachiaria decumbens
# PARTICULARS: Rate 125 g/ha; Preemergence; scale of 0 to 10 where 0 is no effect and 10 is complete control
In your answer, state the number alone without any accompanying words.

Enquiry: Give B. signalgrass plant response rating for the following compound: Cc1ccccc1N(C(=O)n1oc(=O)n(-c2ccccc2C)c1=O)C(C)C
Return: 0

Enquiry: Give B. signalgrass plant response rating for the following compound: CC(C)N(C(=O)n1oc(=O)n(C[Si](C)(C)C)c1=O)c1ccc(F)cc1
Return: 7

Enquiry: Give B. signalgrass plant response rating for the following compound: C=CCn1c(=O)on(C(=O)N(c2ccc(F)cc2)C2CCCCCC2)c1=O
Return: 0

Enquiry: Give B. signalgrass plant response rating for the following compound: Cc1cccc(C)c1-n1c(=O)on(C(=O)N(C(C)C)C2C=CCCC2)c1=O (stereo not shown)
Return: 0

Enquiry: Give B. signalgrass plant response rating for the following compound: COC(=O)CCCn1c(=O)on(C(=O)N(c2ccc(F)cc2)C(C)C)c1=O
Return: 0

Enquiry: Give B. signalgrass plant response rating for the following compound: COC(=O)Cn1c(=O)on(C(=O)N(c2ccc(F)cc2)C(C)C)c1=O
Return: 0

Enquiry: Give B. signalgrass plant response rating for the following compound: CC(C)N(C(=O)n1oc(=O)n(CC(C)(C)C)c1=O)c1ccc(F)cc1
Return: 2

Enquiry: Give B. signalgrass plant response rating for the following compound: CCOCn1c(=O)on(C(=O)N(c2ccc(F)cc2)C(C)C)c1=O
Return: 6

Enquiry: Give B. signalgrass plant response rating for the following compound: CCOC(=O)C(C)N(C(=O)n1oc(=O)n(CC)c1=O)c1ccc(F)cc1 (stereo not shown)
Return: 0

Enquiry: Give B. signalgrass plant response rating for the following compound: CCc1ccc(N(C(=O)n2oc(=O)n(-c3ccccc3C)c2=O)C(C)C)cc1
Return: 0

Source listed as patent US6737383B1.
